Where do these numbers come from? They come from PubChem BioAssay (NCI).

test system: RPMI-8226 leukemia; experiment: NCI tumour cell line growth inhibition, 48 h; in the data active = GI50 below about 0.43 µM; inactive = the rest
Choose one outcome from this list and give only that: active, inactive

Exercise: Per the records of this test, what outcome belongs to CS(=O)(=O)c1ccc(Oc2cc(F)cc(C#N)c2)c2c1[C@H](O)C(F)(F)C2 ?
Solution: inactive

Exercise: Assay outcome for COc1ccc(CCN2CCC(Nc3nc4ccccc4n3Cc3ccc(F)cc3)CC2)cc1 : what was it?
Solution: inactive

Exercise: Record lookup: outcome of this test for CCN(CC)CCCC(Cc1ccccc1)Nc1c2ccc(Cl)cc2nc2ccc(OC)cc12 (stereo not given) ?
Solution: inactive

Exercise: Just curious, what result did CC(C)n1c(=O)n(C)c2cnc3cc(F)c(-c4ccc(OCCCN5CCCCC5)nc4)cc3c21 get here?
Solution: inactive

Exercise: Answer briefly: the call reported for O=C(CN1C(=O)S/C(=C\C(Cl)=C\c2ccccc2)C1=O)NCCc1ccc(O)cc1 in this assay.
Solution: inactive

Exercise: Assay outcome for COC1=CC(c2ccc[nH]2)=N/C1=C\c1[nH]c(C)c(C(C)=O)c1C : what was it?
Solution: active

Exercise: Would you mind telling me which call this test gave Oc1ccc(-c2cn3cc(Cl)sc3n2)cc1 ?
Solution: inactive

Exercise: // param item: NC1=CC(=O)c2nc3ccccc3c3ccnc1c23 ; yields the recorded call
Solution: inactive

Exercise: What did the test return for CC1(C)N=C(N)N=C(N)N1c1cccc(CCCCOc2ccccc2)c1 ?
Solution: active

Exercise: For COc1ccc(-c2nc(N3CCOCC3)c3sc(CN(C)c4ncc(C(=O)NO)cn4)cc3n2)cn1 , which call appears in the assay record?
Solution: active

* * *

Assign TGI to each entry below.
system: EKVX NSCLC; experiment: NCI tumour cell line growth inhibition, 48 h
// return numeric value only (unit: µM, not printed)

Exercise: Returns the measured TGI for the input compound. Input: Cc1ccc([N+](=O)[O-])cc1S(=O)(=O)Nc1ccc(C2=NN(C(=O)c3ccccc3)C(c3cccs3)C2)cc1 (stereo not given)
Solution: 67.7

Exercise: Would you kindly share the measured TGI for Cn1c(=O)cc(N=Nc2ccc(Cl)c(Cl)c2)[nH]c1=O ?
Solution: 51.4

Exercise: Data request, read-out TGI, for N#Cc1c(-c2cccc(Cl)c2)cc(-c2ccc(Cl)cc2)nc1N
Solution: 45

Exercise: Field request: TGI | item: O=C1CCC(N2Cc3c(C#CCCCNC(=O)c4cc5c(o4)C(=O)c4ccccc4C5=O)cccc3C2=O)C(=O)N1 (stereo not given)
Solution: 31.1

* * *

Provide the reported TGI of each item.
system: XF 498 CNS; assay: NCI tumour cell line growth inhibition, 48 h

Exercise: Request - read-out TGI | tested on XF 498 CNS | molecule COC(=O)C(Cc1ccccc1)NC(=O)Cn1ccnc1[N+](=O)[O-] (stereo not given)
Solution: > 100 µM

Exercise: Value wanted: TGI (XF 498 CNS) of entry CC(C(=O)O)/C(=C\c1ccc2c(c1)OCO2)C(=O)O (stereo not given)
Solution: > 100 µM

Exercise: Lab note: need TGI for O=C1c2cc([N+](=O)[O-])cc3cc([N+](=O)[O-])cc(c23)C(=O)N1CCCNCCNCCCN1C(=O)c2cc([N+](=O)[O-])cc3cc([N+](=O)[O-])cc(c23)C1=O on XF 498 CNS, anyone have it?
Solution: 0.436 µM

Exercise: Can you look up TGI on XF 498 CNS for CCC[CH2][Sn]1([CH2]CCC)[O]CC(CN2CCOCC2)[O]1 (stereo not given) ?
Solution: 3.11 µM

Exercise: Recorded TGI for COC(=O)C1=C(CS(=O)c2ccc([N+](=O)[O-])cc2[N+](=O)[O-])ON(C)C1c1ccccc1 (stereo not given) with XF 498 CNS, please?
Solution: > 100 µM

Exercise: What reported TGI corresponds to CCOC(=O)C(=O)Nc1c(CC)cccc1C(C)CC (stereo not given) on XF 498 CNS?
Solution: > 100 µM

Exercise: State its TGI on XF 498 CNS: CCOC(=O)C(=O)Nc1c(C)cccc1C(C)C
Solution: > 100 µM

Exercise: What measured TGI is associated with O=C(c1nc2ccc(Cl)cc2[nH]c1=O)C(O)c1ccc2c(c1)OCO2 (stereo not given) on XF 498 CNS?
Solution: > 100 µM

Exercise: Tell me reported TGI for Cc1c(C(=O)/C=C/c2c(Cl)cccc2Cl)c(=O)n(-c2ccccc2)n1C , tested with XF 498 CNS.
Solution: 71 µM

Exercise: Hello, I am looking for reported TGI with XF 498 CNS for NC(=O)NC1=NC(Cc2ccccc2)C(=O)N1Cc1ccccc1 (stereo not given) . Could you help?
Solution: > 100 µM

* * *

For each of the compounds below, state its GI50.
tested on: HOP-92 NSCLC; assay: NCI tumour cell line growth inhibition, 48 h

Exercise: Request the reported GI50 associated with CC(=O)OC1Oc2cc(C)c(C)cc2-c2oc(=O)c(-c3ccc(F)cc3)cc21 (stereo not given)
Solution: 3100 nM

Exercise: # GI50 lookup, item COc1ccc(-c2nn(-c3cccc(NC(=O)c4cccc(C(F)(F)F)c4)c3)cc2-c2ccncc2)cc1Cl
Solution: 1000 nM

Exercise: Name the recorded GI50 for O=C1CC[C@H](c2ccc(O)c3c2C(=O)[C@@H]2O[C@@H]2C3=O)c2cccc(O)c21 .
Solution: 2380 nM

Exercise: So what's the measured GI50 for this one? O=C(NC1CCCCC1)NS(=O)(=O)c1ccc(-n2nc3c(c2-c2ccc(Cl)cc2)Cc2ccccc2-3)cc1
Solution: 6450 nM

Exercise: Report GI50 for COc1ccc(OC)c(/C=C2\COc3ccc(O)c(O)c3C2=O)c1 please.
Solution: 2800 nM

* * *

system: SF-268 CNS; assay: NCI tumour cell line growth inhibition, 48 h
Where a SMILES comes first, the peptide text is derived from it. [ ]: non-standard residue; d: D form. The star is where a group is joined. NMeF = CN[C@@H](Cc1ccccc1)C(=O)O; NMeV = CN[C@H](C(=O)O)C(C)C; Boc = CC(C)(C)OC(=O)*; OBn = c1ccc(CO*)cc1
quantity: TGI

Exercise: Which TGI value belongs to COC(=O)c1ccc(COC(=O)N2C=CCC2C(=O)O)cc1 (stereo not given) ?
Solution: > 100 µM

Exercise: May I ask what TGI has been recorded for CCC1c2[nH]c3ccccc3c2C[C@H]2C(=O)N3CCC[C@H]3C(=O)N12 (stereo not given in full) ?
Solution: > 100 µM

Exercise: Item C/C(=C\CCc1ccsc1)CC/C=C(\C)CCCN1CCC(CO)CC1 has what recorded TGI?
Solution: 19.4 µM

Exercise: Reported TGI, compound CCCNC(=O)Cn1c(C)cc2ccccc21 : ____
Solution: > 100 µM

Exercise: Please report the recorded TGI for CCCC1=C(C(=O)OCC)C(c2ccccc2OC)C(C#N)=C(N)O1 (stereo not given) .
Solution: > 100 µM

Exercise: Please report the recorded TGI for CS/C(=N\S(=O)(=O)c1cc(C)c(Cl)cc1Cl)NNc1cnc2ccccc2n1 .
Solution: > 100 µM

Exercise: # lookup: TGI of COC(=O)C1=C(CS(=O)c2ccc([N+](=O)[O-])cc2[N+](=O)[O-])ON(C)C1c1ccccc1 (stereo not given)
Solution: > 100 µM

Exercise: Entry CC(=O)c1ccc(NC(=O)C(=O)C(C(=O)c2ccc(Cl)c(Cl)c2)C2OC(=O)c3ccccc32)cc1 (stereo not given) : reported TGI = ?
Solution: 38.2 µM

Exercise: // query TGI value for entry CCOC(=O)C(=O)Nc1c(C)cccc1C(C)C
Solution: > 100 µM

Exercise: Requested field: TGI. Item: CC1=NN(C(=O)CC(=O)Nc2cccc(C)c2)C(=O)C1N=Nc1ccc(S(=O)(=O)c2ccc(N=NC3C(=O)N(C(=O)CC(=O)Nc4cccc(C)c4)N=C3C)cc2)cc1 (stereo not given)
Solution: > 100 µM

Exercise: Given C/C(=N/c1[nH]c(=O)cc2c1C(=O)CC2)N(C)C , state its recorded TGI.
Solution: > 200 µM

Exercise: Need TGI of CCn1c(-c2nonc2N)nc2cncc(C(=O)NCCNC)c21 , thanks.
Solution: > 25 µM

Exercise: For the compound COCCN(CCOC)C(=O)COc1c2cc(C(C)(C)C)cc1Cc1cc(C(C)(C)C)cc(c1OCC(=O)N(CCOC)CCOC)Cc1cc(C(C)(C)C)cc(c1OCC(=O)N(CCOC)CCOC)Cc1cc(C(C)(C)C)cc(c1OCC(=O)N(CCOC)CCOC)Cc1cc(C(C)(C)C)cc(c1OCC(=O)N(CCOC)CCOC)C2 , what TGI is on record?
Solution: 19.1 µM

Exercise: Param item = O=C1C(=c2cc3c(c4ccccc24)=NC24CCCCC2C(c2ccccc2)C=C(c2ccccc2)N34)C(=O)c2ccccc21 (stereo not given) ; retrieve measured TGI.
Solution: > 100 µM

Exercise: Reported TGI, compound CC(C)[C@@H](C(=O)N1CCC[C@H]1C(=O)OCc1ccccc1)N(C)C(=O)[C@H](C(C)C)N(C)C(=O)[C@H](Cc1ccccc1)N(C)C(=O)[C@H](NC(=O)OC(C)(C)C)C(C)C (Boc-[dV][NMeF][NMeV][NMeV]P-OBn) : ____
Solution: > 100 µM
